The measurements presented in this section are drawn from ChEMBL document CHEMBL3232847.

Assay Procedure: Half life in beagle dog at 0.2 mg/kg, iv
Type: ADME, organism-based, Canis lupus familiaris
Parameters: dose 0.2 mg/kg, route intravenous
Assay Conditions: in vivo
Metric Name: half-life
Put your answer as a value accompanied by its unit after it.

Memo: CC1(C)Oc2nc(C(F)(F)F)nc(N)c2N=C1c1ccc2c(c1)CC[C@]21CC[C@@H](CC(=O)O)CC1 , reported half-life: 66 min

* * *

Assay Procedure: Clearance in Sprague-Dawley rat at 0.7 mg/kg, iv
Type: ADME, organism-based
Parameters: dose 0.7 mg/kg, route intravenous
Assay Conditions: in vivo
Metric Name: clearance (mL/min/kg)
State just the number; it will be interpreted in mL/min/kg.

Query CC1(C)Oc2nc(C(F)(F)F)nc(N)c2N=C1c1ccc2c(c1)CC[C@]21CC[C@@H](CC(=O)O)CC1 yields clearance of 3.5
